Source listed as patent US20200216532A1.

# TARGET_UNDER_TEST: T1, purified interference factor(s), Donor A
# T1 construct: also called interference in serum from Donor A
# PROTOCOL_NOTES: SPR, interference factor immobilized
Item-by-item account of % of binding of reference (=100%)

# BINDER, % of binding of reference (=100%)
rows = [
    ("SEQ ID NO: 72 (VHH, Ex. 8) VHH: EVQLVESGGGLVQPGGSLRLSCAASRSIGRLDRMGWYRHRPGEPRELVATITGGSSINYGDSVKGRFTISIDNSKNTVYLQMNSLRPEDTAVYYCNFNKYVTSRDTWGQGTLVTVGG", 70),
    ("SEQ ID NO: 68 (VHH, Ex. 8) VHH: EVQLVESGGGLVQAGGSLRLSCAASRSIGRLDRMGWYRHRPGEPRELVATITGGSSINYGDSVKGRFTISIDNSKNTVYLQMNSLRPEDTAVYYCNFNKYVTSRDTWGQGTQVTVSS", 38),
    ("SEQ ID NO: 38 (VHH, Ex. 8) EVQLVESGGGLVQPGGSLRLSCAASGFTFSSYAMSWVRQAPGKGLEWVSGIKSSGDSTRYAGSVKGRFTISRDNAKNTLYLQMNSLRPEDTAVYYCAKSRVSRTGLYTYDNRGQGTLVTVSSGGGGSGGGGSGGGGSGGGGSEVQLVESGGGLVQPGGSLRLSCAASGRTFNNYAMGWFRQAPGKEREFVAAITRSGVRSGVSAIYGDSVKDRFTISRDNAKNTLYLQMNSLRPEDTAVYYCAASAIGSGALRRFEYDYSGQGTLVTVSSA", 9),
]
